# System: UACC-257 melanoma
# assay summary: NCI-60 one-dose screen, 48 h
# condition label: 10 µM unless noted
This is part of a sample that, as a whole, favours compounds with a hit. Of some 83,000 tested, about 20% had one in any assay. Activity calls are given as the source filed them. How the source made its calls: active means growth percent below 10; inactive means the rest.
Possible outcomes: active, inactive

INSERT INTO measurements (smiles_text, measurement_target, class_label) VALUES
  ('Nc1cc2ccccc2c(=O)n1NC(=O)c1ccccc1', 'UACC-257 melanoma', 'inactive'),
  ('CS(=O)(=O)Nc1cc(-c2ccc3ncnc(Nc4ccc(OCc5cccnc5)c(Cl)c4)c3c2)cnc1Cl', 'UACC-257 melanoma', 'active'),
  ('COc1ccc(-c2cc(C)nc3[nH]c(=O)sc23)cc1', 'UACC-257 melanoma', 'inactive'),
  ('O=C(NNC(=S)NC(=O)c1ccccc1)c1ccc(OCc2nc3ccc(Cl)cc3[nH]2)cc1', 'UACC-257 melanoma', 'active'),
  ('CC1=C(C)C(=O)C(N2CCSCC2)=CC1=O', 'UACC-257 melanoma', 'inactive'),
  ('COc1ccc2[nH]c(O)c(N=Nc3nc(-c4ccc(Cl)cc4)cs3)c2c1', 'UACC-257 melanoma', 'active'),
  ('COc1ccc(N=Nc2c(N)nn3c(-c4ccc(OC)c(OC)c4)ccnc23)cc1', 'UACC-257 melanoma', 'inactive'),
  ('CCOC(=O)c1ccc(NC(=S)NC(=O)c2cccc(NC(=O)c3ccc(C)cc3)c2)cc1', 'UACC-257 melanoma', 'inactive'),
  ('O=C(CSc1nnc(-c2ccc(-c3nc4ccc(Cl)cc4[nH]3)cc2)o1)Nc1ccc(Br)cc1', 'UACC-257 melanoma', 'inactive'),
  ('CN(CCSSCCN1CCOCC1)C(=O)Oc1cc2c(c3ccccc13)[C@H](CCl)CN2C(=O)c1cc2cc(OCCCN3CCC3)ccc2[nH]1', 'UACC-257 melanoma', 'active');

* * *

# Test system: COLO 205 colon
# assay summary: NCI-60 one-dose screen, 48 h
# condition label: 10 µM unless noted
Compounds without any hit were thinned out: in the full panel of roughly 83,000, 20% have a hit. Calls of active or inactive are those of the source. The calls were made as follows: active = growth percent below 10; inactive = the rest.
Possible outcomes: active, inactive

INSERT INTO assay_data (compound, class_label) VALUES
  ('CCOc1ccc2[nH]c(=O)c(C(c3nnnn3CC3CCCO3)N3CCN(Cc4ccccc4)CC3)cc2c1 (centres undefined)', 'inactive'),
  ('Cc1ccc(C(=O)C[n+]2cccc3c4ccccc4ccc32)cc1', 'active'),
  ('O=c1[nH]c2ccccc2cc1COc1ccc(Nc2nccc(-c3ccc(Cl)cc3)n2)cc1', 'inactive'),
  ('CCOC(=O)/C(F)=C/C1CC1C1CCN(C(=O)OC(C)(C)C)CC1 (centres undefined)', 'inactive');

* * *

# Test system: SK-MEL-28 melanoma
# assay summary: NCI-60 one-dose screen, 48 h
# condition label: 10 µM unless noted
This is part of a sample that, as a whole, favours compounds with a hit. Of some 83,000 tested, about 20% had one in any assay. Calls of active or inactive are those of the source. Rule for the calls: active = growth percent below 10; inactive = the rest.
Possible outcomes: y = active, n = inactive

INSERT INTO measurements (compound, class_label) VALUES
  ('CCCCN1C(=O)/C(=C\C(=O)c2cc3ccccc3oc2=O)c2ccccc21', 'n'),
  ('CCc1ccccc1-c1nc(CN[C@@H]2C[C@@H]3C[C@H]([C@H]2C)C3(C)C)c(C)o1', 'y'),
  ('O=C(Nc1ccc(-c2ccc3c(c2)NC(=O)/C3=C\c2ccc[nH]2)cc1)Nc1cccc(Cl)c1', 'y'),
  ('Cc1cccc(NCC(=O)N2CCN(c3ncnc4c3cnn4-c3ccccc3)CC2)c1', 'n'),
  ('COc1cc(/C=C/C(=O)c2cnn(-c3cc(=O)[nH]c4ccc(Br)cc34)c2C)cc(OC)c1OC', 'y'),
  ('CCc1ccc(SC2c3cc(OC)ccc3Oc3nc(N)c(C#N)c(N)c32)cc1 (stereo unspecified)', 'y'),
  ('O=C(NN1C(=O)/C(=C/C=C/c2ccc([N+](=O)[O-])o2)SC1=S)c1ccc([N+](=O)[O-])cc1', 'y'),
  ('O=C(NNC(=S)NC(=O)c1ccccc1)c1ccc(OCc2nc3ccc(Cl)cc3[nH]2)cc1', 'y'),
  ('CCCn1c(NC(=O)c2cccc(C(N)=O)c2)nc2ccc(CN3CCCCC3)cc21', 'n'),
  ('Cc1nn(-c2ccccc2)c2nc(C)n(C(=O)N/N=C/c3cccc([N+](=O)[O-])c3)c(=O)c12', 'n'),
  ('CCCCNc1ccc2c3c(cccc13)C(=O)N(NCC(O)COc1ccc3c(C)cc(=O)oc3c1)C2=O (stereo unspecified)', 'n'),
  ('CCOC(=O)/C(F)=C/C1CC1C1CCN(C(=O)OC(C)(C)C)CC1 (stereo unspecified)', 'n'),
  ('COc1ccc(N=Nc2c(N)nn3c(N)c(C#N)c(-c4ccc(C)cc4)nc23)cc1', 'n'),
  ('COc1ccc(N=Nc2c(N)nn3c(-c4cc5ccccc5oc4=O)ccnc23)cc1', 'n'),
  ('Cc1cccc(C)c1Nc1nnc(-c2c[nH]c3ccccc23)o1', 'n'),
  ('O=C(N/N=C/c1ccc(Cl)cc1)c1ccc(OCc2nc3ccc(Cl)cc3[nH]2)cc1', 'n'),
  ('CN(CCSSCCN1CCOCC1)C(=O)Oc1cc2c(c3ccccc13)[C@H](CCl)CN2C(=O)c1cc2cc(OCCCN3CCC3)ccc2[nH]1', 'y'),
  ('COc1c2c(cc3c1C(CCc1ccccc1)N(C)CC3)OCO2 (stereo unspecified)', 'y'),
  ('c1ccc(CSc2nnc(-c3ccc4nc(-c5ccccc5)[nH]c4c3)o2)cc1', 'y'),
  ('O=C(c1ccc(Cl)cc1)C1[C@H](c2ccccc2Cl)[C@@H](c2ccccc2)NC12C(=O)Nc1ccc(Cl)cc12 (stereo partly specified)', 'y'),
  ('C/C(=N\Nc1ccc(C(=O)O)cc1)c1cnn(-c2cc(=O)[nH]c3ccc(C)cc23)c1C', 'n'),
  ('O=C1Nc2cc(-c3ccc(NS(=O)(=O)c4ccc([N+](=O)[O-])cc4)cc3)ccc2/C1=C/c1ccc[nH]1', 'y'),
  ('Cc1cnc2ccc(Oc3ccccc3-c3ccccc3)nn12', 'n'),
  ('COc1ccc(NC(=O)Cn2c(/C=C/c3ccc([N+](=O)[O-])cc3)nc3ccccc3c2=O)cc1', 'n'),
  ('C=CCSc1nnc(-c2ccc(-c3nc4ccc(Cl)cc4[nH]3)cc2)o1', 'n'),
  ('O=c1[nH]c2ccccc2cc1COc1ccc(Nc2nccc(-c3ccc(Cl)cc3)n2)cc1', 'n');
